The origin of these recorded values is ChEMBL document CHEMBL3272039.

Species: Bos taurus
method summary: Displacement of ethidium bromide from calf thymus DNA by spectrofluorometric analysis
Below, each entry is listed with its recorded C50.
property name: C50 (µM)

INSERT INTO assay_data (structure, val) VALUES
  ('CS(=O)(=O)Nc1ccc(Nc2ccnc3ccccc23)cc1', 490),
  ('Cl.O=S(=O)(CCCCS(=O)(=O)Nc1ccc(Nc2c3ccccc3nc3ccccc23)cc1)Nc1ccc(Nc2c3ccccc3nc3ccccc23)cc1', 0.053),
  ('Cl.c1ccc(OCCCCCCCOc2ccccc2Nc2c3ccccc3nc3ccccc23)c(Nc2c3ccccc3nc3ccccc23)c1', 3.8),
  ('c1ccc2c(NCCCCCCCCCCCCCCCCNc3c4ccccc4nc4ccccc34)c3ccccc3nc2c1', 0.23);
